- target system: human TAS2R1 (Homo sapiens, UniProt Q9NYW7)
- Construct: expressed in transfected cells; host or cells: HEK293T-Gα16gust44
- Sequence (Q9NYW7 1-299): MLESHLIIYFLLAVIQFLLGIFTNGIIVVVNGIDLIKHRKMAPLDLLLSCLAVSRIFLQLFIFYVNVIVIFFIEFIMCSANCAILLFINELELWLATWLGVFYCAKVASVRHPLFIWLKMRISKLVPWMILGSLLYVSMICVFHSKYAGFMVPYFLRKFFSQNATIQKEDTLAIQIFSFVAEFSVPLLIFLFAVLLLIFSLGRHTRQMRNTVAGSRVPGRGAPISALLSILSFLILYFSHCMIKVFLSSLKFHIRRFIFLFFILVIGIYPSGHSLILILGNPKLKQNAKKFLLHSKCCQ
- procedure text: Calcium imaging assay (FLIPR), HEK293T-Gα16gust44 cells transfected with human TAS2R1
- Type: cell-based
- settings: Time 245.562 s
measurement name: RLU (RLU)
Report the figure in RLU without appending any unit label.

Req: What value of measured RLU is listed for C[C@H](CCC(=O)O)[C@H]1CC[C@H]2[C@@H]3[C@H](O)C[C@@H]4C[C@H](O)CC[C@]4(C)[C@H]3CC[C@]12C ?
Resp: 124.55

Req: What value of measured RLU is listed for C[C@H](CCC(=O)O)[C@H]1CC[C@H]2[C@@H]3[C@@H](O)C[C@@H]4C[C@H](O)CC[C@]4(C)[C@H]3CC[C@]12C ?
Resp: -15.0975

Req: What value of measured RLU is listed for C[C@H](CCC(=O)O)[C@H]1CC[C@H]2[C@@H]3[C@H](O)C[C@@H]4C[C@H](O)CC[C@]4(C)[C@H]3C[C@H](O)[C@]12C ?
Resp: 6.786

Req: What value of measured RLU is listed for C[C@H](CCC(=O)O)[C@H]1CC[C@H]2[C@@H]3CC[C@@H]4C[C@H](O)CC[C@]4(C)[C@H]3CC[C@]12C ?
Resp: 384.802

* * *

- target system: mouse Tas2r108 (Mus musculus)
- Construct: expressed in transfected cells; host or cells: HEK293T-Gα16gust44
- Sequence (Q9JKT3 whole entry): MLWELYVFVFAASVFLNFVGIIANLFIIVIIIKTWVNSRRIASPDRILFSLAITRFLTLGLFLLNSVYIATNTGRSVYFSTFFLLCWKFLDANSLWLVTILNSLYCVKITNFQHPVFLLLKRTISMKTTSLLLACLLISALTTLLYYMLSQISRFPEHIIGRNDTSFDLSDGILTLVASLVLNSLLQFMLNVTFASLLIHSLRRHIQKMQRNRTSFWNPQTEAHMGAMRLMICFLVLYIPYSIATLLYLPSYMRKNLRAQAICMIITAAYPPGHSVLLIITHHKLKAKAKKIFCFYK
- procedure text: Calcium imaging assay (FLIPR), HEK293T-Gα16gust44 cells transfected with mouse Tas2r108
- Format: cell-based
- settings: Time 2 s
measurement name: RLU

Req: What value of measured RLU is listed for C[C@H](CCC(=O)NCC(=O)O)[C@H]1CC[C@H]2[C@@H]3[C@H](O)C[C@@H]4C[C@H](O)CC[C@]4(C)[C@H]3C[C@H](O)[C@]12C ?
Resp: 7.69 RLU

Req: What value of measured RLU is listed for C[C@H](CCC(=O)NCCS(=O)(=O)O)[C@H]1CC[C@H]2[C@@H]3[C@H](O)C[C@@H]4C[C@H](O)CC[C@]4(C)[C@H]3C[C@H](O)[C@]12C ?
Resp: -20.2593 RLU

Req: What value of measured RLU is listed for C[C@H](CCC(=O)NCCS(=O)(=O)O)[C@H]1CC[C@H]2[C@@H]3CC[C@@H]4C[C@H](O)CC[C@]4(C)[C@H]3CC[C@]12C ?
Resp: 0.6757 RLU

Req: What value of measured RLU is listed for C[C@H](CCC(=O)O)[C@H]1CC[C@H]2[C@@H]3CC[C@@H]4C[C@H](O)CC[C@]4(C)[C@H]3C[C@H](O)[C@]12C ?
Resp: 10.4901 RLU

Req: What value of measured RLU is listed for C[C@H](CCC(=O)O)[C@H]1CC[C@H]2[C@@H]3[C@H](O)C[C@@H]4C[C@H](O)CC[C@]4(C)[C@H]3C[C@H](O)[C@]12C ?
Resp: 6.931 RLU

* * *

- target system: human TAS2R4 (Homo sapiens, UniProt Q9NYW5)
- Construct: expressed in transfected cells; host or cells: HEK293T-Gα16gust44
- procedure text: Calcium imaging assay (FLIPR), HEK293T-Gα16gust44 cells transfected with human TAS2R4; also: test concentration or dose not given here
- Assay type: cell-based
- settings: Time (s) 161.547
For each of the compounds below, state its RLU, fluorescence trace.
Report the figure in RLU without appending any unit label.

Req: What value of measured RLU, fluorescence trace is listed for C[C@H](CCC(=O)NCCS(=O)(=O)O)[C@H]1CC[C@H]2[C@@H]3CC[C@@H]4C[C@H](O)CC[C@]4(C)[C@H]3CC[C@]12C ?
Resp: 207.578

Req: What value of measured RLU, fluorescence trace is listed for C[C@H](CCC(=O)NCCS(=O)(=O)O)[C@H]1CC[C@H]2[C@@H]3[C@H](O)C[C@@H]4C[C@H](O)CC[C@]4(C)[C@H]3C[C@H](O)[C@]12C ?
Resp: 446.448

Req: What value of measured RLU, fluorescence trace is listed for C[C@H](CCC(=O)O)[C@H]1CC[C@H]2[C@@H]3[C@H](O)C[C@@H]4C[C@H](O)CC[C@]4(C)[C@H]3C[C@H](O)[C@]12C ?
Resp: 346.602

Req: What value of measured RLU, fluorescence trace is listed for C[C@H](CCC(=O)NCC(=O)O)[C@H]1CC[C@H]2[C@@H]3[C@H](O)C[C@@H]4C[C@H](O)CC[C@]4(C)[C@H]3C[C@H](O)[C@]12C ?
Resp: 303.241

Req: What value of measured RLU, fluorescence trace is listed for C[C@H](CCC(=O)O)[C@H]1CC[C@H]2[C@@H]3CC[C@@H]4C[C@H](O)CC[C@]4(C)[C@H]3C[C@H](O)[C@]12C ?
Resp: 338.156

Req: What value of measured RLU, fluorescence trace is listed for C[C@H](CCC(=O)O)[C@H]1CC[C@H]2[C@@H]3[C@@H](O)C[C@@H]4C[C@H](O)CC[C@]4(C)[C@H]3CC[C@]12C ?
Resp: 172.093

* * *

- target system: human TAS2R14 (Homo sapiens, UniProt Q9NYV8)
- Construct: expressed in transfected cells; host or cells: HEK293T-Gα16gust44
- Sequence (Q9NYV8 whole entry): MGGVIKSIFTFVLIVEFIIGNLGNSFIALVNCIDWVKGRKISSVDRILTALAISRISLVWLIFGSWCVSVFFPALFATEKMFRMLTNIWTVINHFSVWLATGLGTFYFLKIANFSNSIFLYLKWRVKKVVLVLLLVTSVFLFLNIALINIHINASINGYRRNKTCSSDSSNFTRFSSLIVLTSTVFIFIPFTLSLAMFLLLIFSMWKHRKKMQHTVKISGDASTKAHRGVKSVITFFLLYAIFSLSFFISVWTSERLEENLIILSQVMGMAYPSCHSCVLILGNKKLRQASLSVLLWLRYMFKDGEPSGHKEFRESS
- procedure text: Calcium imaging assay (FLIPR), HEK293T-Gα16gust44 cells transfected with human TAS2R14
- Assay type: cell-based
- settings: TAS2R14 trace; Time (s) 14 (Taurocholic Acid 14.016)
For each of the compounds below, state its RLU.
Report the figure in RLU without appending any unit label.

Req: What value of measured RLU is listed for C[C@H](CCC(=O)NCC(=O)O)[C@H]1CC[C@H]2[C@@H]3[C@H](O)C[C@@H]4C[C@H](O)CC[C@]4(C)[C@H]3C[C@H](O)[C@]12C ?
Resp: -36.9901

Req: What value of measured RLU is listed for C[C@H](CCC(=O)O)[C@H]1CC[C@H]2[C@@H]3[C@H](O)C[C@@H]4C[C@H](O)CC[C@]4(C)[C@H]3CC[C@]12C ?
Resp: -37.1122

Req: What value of measured RLU is listed for C[C@H](CCC(=O)NCCS(=O)(=O)O)[C@H]1CC[C@H]2[C@@H]3CC[C@@H]4C[C@H](O)CC[C@]4(C)[C@H]3CC[C@]12C ?
Resp: -37.8259

Req: What value of measured RLU is listed for C[C@H](CCC(=O)NCCS(=O)(=O)O)[C@H]1CC[C@H]2[C@@H]3[C@H](O)C[C@@H]4C[C@H](O)CC[C@]4(C)[C@H]3C[C@H](O)[C@]12C ?
Resp: -55.3521

Req: What value of measured RLU is listed for C[C@H](CCC(=O)O)[C@H]1CC[C@H]2[C@@H]3[C@H](O)C[C@@H]4C[C@H](O)CC[C@]4(C)[C@H]3C[C@H](O)[C@]12C ?
Resp: -33.528

* * *

For each of the molecules below, state its RLU, fluorescence trace.
- target system: human TAS2R4 (Homo sapiens, UniProt Q9NYW5)
- Construct: expressed in transfected cells; host or cells: HEK293T-Gα16gust44
- Sequence (Q9NYW5 1-299): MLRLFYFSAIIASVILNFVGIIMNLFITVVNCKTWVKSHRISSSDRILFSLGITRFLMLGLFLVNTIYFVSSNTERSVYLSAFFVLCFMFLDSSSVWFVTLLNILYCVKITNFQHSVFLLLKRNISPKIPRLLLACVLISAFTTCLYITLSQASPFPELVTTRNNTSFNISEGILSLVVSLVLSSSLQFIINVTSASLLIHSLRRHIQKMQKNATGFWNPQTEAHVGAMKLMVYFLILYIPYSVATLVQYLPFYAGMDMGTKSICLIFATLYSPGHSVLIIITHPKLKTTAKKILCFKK
- procedure text: Calcium imaging assay (FLIPR), HEK293T-Gα16gust44 cells transfected with human TAS2R4; also: test concentration or dose not given here
- Type: cell-based
- settings: Time (s) 136.781 (TCA, TLCA: 136.782)
Report the figure in RLU without appending any unit label.

Req: What value of measured RLU, fluorescence trace is listed for C[C@H](CCC(=O)NCCS(=O)(=O)O)[C@H]1CC[C@H]2[C@@H]3[C@H](O)C[C@@H]4C[C@H](O)CC[C@]4(C)[C@H]3C[C@H](O)[C@]12C ?
Resp: 535.742

Req: What value of measured RLU, fluorescence trace is listed for C[C@H](CCC(=O)O)[C@H]1CC[C@H]2[C@@H]3CC[C@@H]4C[C@H](O)CC[C@]4(C)[C@H]3C[C@H](O)[C@]12C ?
Resp: 323.134

Req: What value of measured RLU, fluorescence trace is listed for C[C@H](CCC(=O)NCC(=O)O)[C@H]1CC[C@H]2[C@@H]3[C@H](O)C[C@@H]4C[C@H](O)CC[C@]4(C)[C@H]3C[C@H](O)[C@]12C ?
Resp: 402.196

Req: What value of measured RLU, fluorescence trace is listed for C[C@H](CCC(=O)NCCS(=O)(=O)O)[C@H]1CC[C@H]2[C@@H]3CC[C@@H]4C[C@H](O)CC[C@]4(C)[C@H]3CC[C@]12C ?
Resp: 250.545

Req: What value of measured RLU, fluorescence trace is listed for C[C@H](CCC(=O)O)[C@H]1CC[C@H]2[C@@H]3[C@@H](O)C[C@@H]4C[C@H](O)CC[C@]4(C)[C@H]3CC[C@]12C ?
Resp: 214.712

Req: What value of measured RLU, fluorescence trace is listed for C[C@H](CCC(=O)O)[C@H]1CC[C@H]2[C@@H]3[C@H](O)C[C@@H]4C[C@H](O)CC[C@]4(C)[C@H]3C[C@H](O)[C@]12C ?
Resp: 445.361
